Cited source: paper PMC9352680

# Tgt: T1, PUF4 RNA-binding domain (Saccharomyces cerevisiae, UniProt P25339 537-888)
# T1 sequence: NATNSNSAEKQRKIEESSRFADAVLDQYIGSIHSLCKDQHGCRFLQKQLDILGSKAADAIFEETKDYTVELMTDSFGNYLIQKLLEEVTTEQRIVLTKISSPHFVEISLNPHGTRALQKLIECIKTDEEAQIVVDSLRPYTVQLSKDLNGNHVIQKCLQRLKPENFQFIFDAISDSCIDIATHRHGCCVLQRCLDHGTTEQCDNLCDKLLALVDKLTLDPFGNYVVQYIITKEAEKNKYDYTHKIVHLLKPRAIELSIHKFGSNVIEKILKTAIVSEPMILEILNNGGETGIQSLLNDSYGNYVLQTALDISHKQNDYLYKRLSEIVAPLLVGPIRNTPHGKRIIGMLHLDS
# Test Details: Mg; RNA-MaP; 20 mM Na-HEPES pH 7.4, 30 mM KOAc, 0.75 mM MgCl2, 0.1% Tween-20, 5% glycerol, 0.1 mg/mL BSA, 2 mM DTT; 25 C; 0.0125-409.6 nM protein
# Run Parameters: tags: N-His6-TEV cleaved; C-SNAP kept, Cy3B-labelled; label: tethered on chip by stalled RNA polymerase
Reported Metric: pKd
Answers are plain numbers, as −log10 of the molar value.

Examples with answers:
Binder | Readout Number
UCUCUUUGUAUUAUUCUUAUCUCUU (ssRNA) [Ie_S1_P5E.1_K5.1_C5.1_H5.1_A5.1_F5.1_[+8TCT]_T5.1] | 7.78
UCUCUUCUUGUUCCUAUAUAUAUCUCUU (ssRNA) [Ie_S1_P3E.2_K3.1_C3.2_H3.1_[+2TTCC]_A3.1_F3.1_T3.2] | 6.99
Ie_S4_P3E.2_K3.1_C3.2_[+-2CCCTT]_H3.1_A3.1_F3.1_T3.2 (ssRNA) RNA: UUUGACAACUGAUCGUUCUUUCUCCCCUUUUGUAUAUAUAUUCUUUCUCGAUCAGUUGUCUUU | 9.05
UCUCUUUAUAUAAUUAUCUCUU (ssRNA) [Ib_S1_P5E.1_K5.1_C5.1_H5.1_[G2A]_A5.1_[T6A]_F5.1_T5.1] | 6.00
Ic_S2_P5E.1_K5.1_C5.1_H5.1_A5.1_[T6C]_[A7T]_F5.1_[T9A]_[A10T]_T5.1 (ssRNA) RNA: UUUGAUUAAUAUGAUAUCGUUCUUUCUUGUAUCUUAUUUCUUUCUCGAUAUCAUAUUAAUCUUU | 8.82
UCUCUUUGUAAAUCACUCUCUU (ssRNA) [Ic_S1_P5E.1_K5.1_C5.1_H5.1_A5.1_[T5A]_[T6A]_[A7T]_F5.1_[T8C]_[T9A]_[A10C]_T5.1] | 7.20

Count: 3. Required value per item: pKd.
1. UCUCUUUGUAAUAAUGUCUCUU (ssRNA) [Ic_S1_P5E.1_K5.1_C5.1_H5.1_A5.1_[T5A]_F5.1_[T8A]_[A10G]_T5.1]
2. Id_ii_S2_P4E.3_K4.2_C4.2_[T-1C]_H4.2_A4.1_F4.1_T4.2_[G10T]_[T11A] (ssRNA) RNA: UUUGAUUAAUAUGAUAUCGUUCUUUCUCCUAUAUAUUAUAUUCUUUCUCGAUAUCAUAUUAAUCUUU
3. Ib_S4_P5E.1_K5.1_C5.1_H5.1_[A4C]_A5.1_[A7G]_F5.1_T5.1 (ssRNA) RNA: UUUGACAACUGAUCGUUCUUUCUUGUCUUGUUAUUCUUUCUCGAUCAGUUGUCUUU

Reply:
6.28
7.77
6.95

Count: 2. Required value per item: pKd.
1. Ic_S4_P4E.1_K4.1_C4.1_H4.1_A4.1_[T5A]_[A6C]_F4.1_[T8C]_[A9G]_T4.1 (ssRNA) RNA: UUUGACAACUGAUCGUUCUUUCUUGUAACUCGUUCUUUCUCGAUCAGUUGUCUUU
2. UCUCUUUGUAUAUAUAUAUCUCUU (ssRNA) [Id_ii_S1_P3E.3_K3.2_C3.2_[C-2T]_[T-1G]_H3.2_A3.1_F3.1_T3.2]

Reply:
1. 6.24
2. 8.18

Ask: For the binder shown here, UCUCUUUGUACAAUUCUCUU (ssRNA) [Ic_S1_P3E.1_K3.1_C3.1_H3.1_A3.1_[T5C]_F3.1_[T7A]_[A8T]_T3.1] , give the reported pKd.
Reply: 7.96
